molecular target: human TLR9 (Homo sapiens); construct: host or cells: HEK-Blue cells; experiment: TLR9 inhibition reporter assay (HEK-Blue SEAP); assay type: cell-based; details: HEK-Blue cells overexpressing human TLR9, stimulated with ODN2006 5 nM, 22 hour incubation
Sequence (Q9NR96 26-1032): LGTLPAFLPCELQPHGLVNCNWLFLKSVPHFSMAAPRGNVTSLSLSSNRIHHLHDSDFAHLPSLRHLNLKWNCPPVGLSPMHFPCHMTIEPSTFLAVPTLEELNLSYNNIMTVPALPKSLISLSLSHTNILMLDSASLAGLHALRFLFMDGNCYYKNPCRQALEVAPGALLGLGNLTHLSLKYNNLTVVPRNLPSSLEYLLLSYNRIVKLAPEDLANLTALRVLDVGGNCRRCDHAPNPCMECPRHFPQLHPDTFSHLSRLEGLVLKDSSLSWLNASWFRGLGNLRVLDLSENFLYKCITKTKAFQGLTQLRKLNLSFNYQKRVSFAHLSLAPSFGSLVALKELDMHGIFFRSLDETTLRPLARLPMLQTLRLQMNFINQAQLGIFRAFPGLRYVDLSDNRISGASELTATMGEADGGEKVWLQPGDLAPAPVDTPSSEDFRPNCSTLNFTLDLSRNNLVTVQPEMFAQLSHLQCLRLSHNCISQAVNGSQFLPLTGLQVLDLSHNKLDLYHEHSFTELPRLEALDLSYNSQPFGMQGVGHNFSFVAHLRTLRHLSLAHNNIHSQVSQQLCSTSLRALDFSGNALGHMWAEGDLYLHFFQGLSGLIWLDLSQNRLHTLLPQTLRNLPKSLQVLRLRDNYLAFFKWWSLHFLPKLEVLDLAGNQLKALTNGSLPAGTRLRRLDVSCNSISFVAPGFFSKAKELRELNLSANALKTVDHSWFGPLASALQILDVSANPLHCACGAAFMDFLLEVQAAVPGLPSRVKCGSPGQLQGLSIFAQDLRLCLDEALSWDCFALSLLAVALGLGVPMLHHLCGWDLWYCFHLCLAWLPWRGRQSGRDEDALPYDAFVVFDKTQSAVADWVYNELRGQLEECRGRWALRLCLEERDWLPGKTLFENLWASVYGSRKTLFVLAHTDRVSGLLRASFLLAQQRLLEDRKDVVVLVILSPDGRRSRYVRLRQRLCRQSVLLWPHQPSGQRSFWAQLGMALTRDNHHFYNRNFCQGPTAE
pIC50: −log10 of the molar value.

# molecule, readout.relation, pIC50
rows = [
    ("Cc1cc(-c2cc3[nH]nc(C4CCC(N5CC(C)(C)C5)CC4)c3cc2C(C)C)cn2ncnc12 (single isomer, unassigned) [Example 137]", "=", 5.06),
    ("Cc1cc(-c2cc(C)c3ncnn3c2)cc2[nH]ncc12", "≤", 4.30),
    ("Cc1cc2c(C3CCCNC3)n[nH]c2cc1-c1cn2ncnc2c(C)c1C (centres unmarked)", "=", 5.64),
    ("COc1cc2c(C3CCNCC3)n[nH]c2cc1-c1cc(C)c2ncnn2c1", "=", 5.75),
    ("CCCN1CCC(c2n[nH]c3cc(-c4cc(C)c5ncnn5c4)c(C(C)C)cc23)CC1", "=", 5.21),
    ("Cc1cc(-c2cc3[nH]nc(C4CCC(N5CC(OC(C)C)C5)CC4)c3cc2C(C)C)cn2ncnc12 (single isomer, unassigned) [Example 161]", "=", 5.08),
    ("Cc1cc(-c2cc3[nH]nc(C4CCC(N5CC(C)(O)C5)CC4)c3cc2C(C)C)cn2ncnc12 (centres unmarked) [Example 154]", "=", 4.80),
    ("COc1cc(-c2cc3[nH]nc(C4CCC(N(C)C)CC4)c3cc2C(C)C)cn2ncnc12 (single isomer, unassigned) [Example 140]", "=", 5.46),
    ("Cc1cc(-c2cc3[nH]nc(N4CCNCC4)c3cc2C(C)C)cn2ncnc12", "=", 4.66),
    ("Cc1cc2c(C3CCCN(C(=O)CN(C)C)C3)n[nH]c2cc1-c1cc(C)c2ncnn2c1 (centres unmarked) [Example 54]", "=", 5.28),
    ("Cc1cc2c(OC3CCN(C(=O)CN(C)C)CC3)n[nH]c2cc1-c1cc(C)c2ncnn2c1", "=", 5.24),
    ("Cc1cc(-c2cc3[nH]nc(N4CCN(C5CCOCC5)CC4)c3cc2C(C)C)cn2ncnc12", "=", 4.48),
    ("Cc1cc(-c2cc3[nH]nc(C4CCC(N5CC(CO)(CO)C5)CC4)c3cc2C(C)C)cn2ncnc12 (centres unmarked)", "≤", 4.30),
    ("Cc1cc(-c2cc(C)c3ncnn3c2)cc2[nH]nc(C3CCC(N(C)C)CC3)c12 (centres unmarked) [Example 80]", "=", 5.55),
]

Where do the numbers come from? From patent US12172995B2.
